system_name: FimH lectin domain (Escherichia coli)
Sequence (P08191 22-179 limits assumed): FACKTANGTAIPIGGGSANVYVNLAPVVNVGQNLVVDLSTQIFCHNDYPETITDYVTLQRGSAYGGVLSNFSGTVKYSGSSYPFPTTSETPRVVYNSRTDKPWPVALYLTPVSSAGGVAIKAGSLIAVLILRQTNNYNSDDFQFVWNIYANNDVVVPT
assay_overview: biochemical
Format: binding, E. coli strain J96
condition_context: KD(M), Figure S19, fit of solution affinity model to inhibition curve
Assign Kd to each entry below.

Given CCCCCCCCO[C@H]1O[C@H](CO)[C@@H](O)[C@H](O)[C@@H]1O [Compound 5a, octyl α-D-mannopyranoside, reference compound] , respond with its Kd.
2.15e-08 M

Retrieve Kd measured for CCCCCCCO[C@H]1O[C@H](CO)[C@@H](O)[C@H](O)[C@@H]1O [Compound 5, heptyl α-D-mannopyranoside, reference compound] and print it.
4.32e-09 M

---

system_name: FimH lectin domain (Escherichia coli)
assay_overview: biochemical
Type: binding, E. coli strain J96
condition_context: Kd (nM), Table 4, SPR detection; sulfonamide and amide spacers
measure: Kd (nM)
Could you give me the number in nM? Just the number is fine.

Give Kd for O=C(C[C@H]1O[C@H](CO)[C@@H](O)[C@H](O)[C@@H]1O)NCCCc1ccccc1 [Compound 93] tested on FimH lectin domain (Escherichia coli).
105

Consider the compound CC(C)c1cc(C(C)C)c(S(=O)(=O)NCCO[C@H]2O[C@H](CO)[C@@H](O)[C@H](O)[C@@H]2O)c(C(C)C)c1 [Compound 74] tested on FimH lectin domain (Escherichia coli); state its Kd.
37

Please look at O=[N+]([O-])c1ccc(S(=O)(=O)NCCO[C@H]2O[C@H](CO)[C@@H](O)[C@H](O)[C@@H]2O)cc1 [Compound 71] and tell me its recorded Kd on FimH lectin domain (Escherichia coli).
408

Report the value of Kd obtained on FimH lectin domain (Escherichia coli) for O=C(C[C@H]1O[C@H](CO)[C@@H](O)[C@H](O)[C@@H]1O)NCc1ccccc1 [Compound 92] .
397
